Test: Selectivity index, ratio of IC50 for African green monkey Vero cells to IC50 for Plasmodium falciparum K1
Type: toxicity
Details: read-out: Ratio IC50
Friendly reminder: selectivity ratio below 60 is MET, at or above is NOT MET.

# MOLECULE, CAT
measured = [
    ("CO/C=C(/C(=O)OC)[C@H](C)[C@H](/C=C/c1cccc(OC)c1)OC", "MET"),
]

Q. Threshold test, selectivity ratio < 60: "C=CC(C)(C)O[C@H]1COc2ccc(/C=C/C(OC)=C(C)\C(=C/OC)C(=O)OC)cc2OC1(C)C"
A. NOT MET

Q. Threshold test, selectivity ratio < 60: "CO\C=C(C(=O)OC)/C(C)=C(\C=C\c1ccc2c(c1)O[C@@]1(CO2)O[C@H](C=C(C)C)OC1(C)C)OC"
A. NOT MET

Q. Threshold test, selectivity ratio < 60: "CO\C=C(C(=O)OC)/C(C)=C\C=C\c1ccc2c(c1)OC(C)(C)[C@@H](OCC=C(C)C)CO2"
A. NOT MET

Q. Threshold test, selectivity ratio < 60: "C=CC(C)(C)O[C@H]1COc2ccc(/C=C/[C@H](OC)[C@@H](C)/C(=C\OC)C(=O)OC)cc2OC1(C)C"
A. NOT MET

Q. Threshold test, selectivity ratio < 60: CO/C=C(/C(=O)OC)C(C)C(=O)/C=C/c1ccc2c(c1)OC(C)(C)[C@@H](OCC=C(C)C)CO2 (some centres undefined)
A. MET

Q. Threshold test, selectivity ratio < 60: CO/C=C(/C(=O)OC)C(C)C(=O)/C=C/c1ccc2c(c1)O[C@@]1(CO2)O[C@H](C=C(C)C)OC1(C)C (mixture of isomers)
A. MET

###

In this section, each of the compounds is paired with its reported IC50.
Test system: Vero
Assay: Cytotoxicity against African green monkey Vero cells by green fluorescent protein-based assay
Format: cell-based
Details: Chlorocebus sabaeus

The following compounds have reported results that may help.
# TEST_SMILES, TEST_TARGET, IC50
records = [
    ("CO\\C=C(C(=O)OC)/C(C)=C(\\C=C\\c1ccc2c(c1)O[C@@]1(CO2)O[C@H](C=C(C)C)OC1(C)C)OC", "Vero", "> 103 µM"),
    ("C[C@]1([C@@H]2Cc3cc(C(N)=O)cc(Cl)c3O2)CCC(=O)O1", "Vero", "> 169 µM"),
]

Then this compound:
Q. Please look up its IC50: "CO/C=C(/C(=O)OC)[C@H](C)[C@H](/C=C/c1ccc2c(c1)OC(C)(C)[C@@H](OCC=C(C)C)CO2)OC"
A. 28.2 µM

###

System: Vero
Experiment: Cytotoxicity against African green monkey Vero cells by green fluorescent protein-based assay
Assay type: cell-based
Conditions: Chlorocebus sabaeus
MEASURED_PROPERTY: IC50

The following molecules have reported results that may help.
# MOLECULE, TEST_TARGET, IC50
data = [
    ("COC(=O)/C(CO)=C(/C)[C@H](/C=C/c1ccccc1)OC", "Vero", "> 181 µM"),
    ("CO/C=C(/C(=O)OC)C(C)C(=O)/C=C/c1ccccc1 (centres undefined)", "Vero", "> 182 µM"),
    ("C/C(=C/[C@H](O)[C@H](O)c1ccccc1)CCO", "Vero", "> 225 µM"),
]

Q. Please look up its IC50: "C/C(=C\c1ccccc1)[C@@H](O)C(C)(C)O"
A. > 242 µM

Q. Please look up its IC50: "CO/C=C(/C(=O)OC)[C@H](C)[C@@H](O)/C=C/c1ccccc1"
A. > 181 µM

###

In this section, each of the compounds is paired with its reported IC50.
Tested on: Vero
Experiment: Cytotoxicity against African green monkey Vero cells by green fluorescent protein-based assay
Format: cell-based
Conditions: Chlorocebus sabaeus

# TEST_SMILES, TEST_TARGET, RESULT
data = [
    ("CO/C=C(/C(=O)OC)[C@H](C)[C@H](/C=C/c1ccc2c(c1)OC(C)(C)[C@@H](O)CO2)OC", "Vero", "> 123 µM"),
    ("CC(=O)OCC/C(C)=C\\[C@H](O)[C@H](O)c1ccccc1", "Vero", "> 189 µM"),
    ("C/C(=C\\c1ccccc1)[C@@H](O)C(C)(C)C(=O)O", "Vero", "> 213 µM"),
]

Then this compound:
Q. Please look up its IC50: "CO\C=C(C(=O)OC)/C(C)=C\C=C\c1ccc2c(c1)OC(C)(C)[C@@H](OCC=C(C)C)CO2"
A. > 113 µM
